tested on: peptide amidase; test: Enzymatic reaction of peptide amides with a chain length of greater than three amino acids; assay type: biochemical, orange; conditions: peptide amidase, 6 h, 10000 µM, pH 7
Peptide text beside a SMILES is read from it. * marks the point of attachment. Cbz = O=C(OCc1ccccc1)*
endpoint name: Yield (%/6 h)

N=C(N)NCCC[C@H](NC(=O)[C@@H]1CCCN1)C(=O)NCC(N)=O [H--Pro--Arg--Gly--NH2] (H-Pro-Arg-Gly-NH2): 100

I = CC(C)[C@H](NC(=O)OCc1ccccc1)C(=O)NCC(=O)N[C@@H](C)C(=O)N1CCC[C@H]1C(N)=O [Z--Val--Gly--Ala--Pro--NH2] (Cbz-VGAP-NH2)
II = CC(C)C[C@H](NC(=O)[C@@H]1CCCN1C(=O)OCc1ccccc1)C(=O)NCC(N)=O [Z--Pro--Leu--Gly--NH2] (Cbz-Pro-Leu-Gly-NH2)
Task: Returns the identifier with the smallest measured Yield among I and II . State the label of the item chosen.
Result: I
(I: 0 %/6 h, II: 100 %/6 h)
